# measurement_parameters: in formic acid, 318.15 K

{"cpd_smiles": "NC(=O)c1ncn([C@@H]2O[C@H](CO)[C@@H](O)[C@H]2O)n1", "solubility (mole fraction)": 0.131}

----------
# measurement_parameters: in acetone, 313.15 K
reported_metric: solubility (mole fraction)

{"cpd_smiles": "NC(=O)c1ncn([C@@H]2O[C@H](CO)[C@@H](O)[C@H]2O)n1", "reported_metric": "solubility (mole fraction)", "test_value": 0.000114}

----------
# measurement_parameters: in n-propanol, 323.15 K

{"cpd_smiles": "NC(=O)c1ncn([C@@H]2O[C@H](CO)[C@@H](O)[C@H]2O)n1", "solubility (mole fraction)": 0.000295}

----------
# measurement_parameters: in ethanol, 288.15 K

{"cpd_smiles": "NC(=O)c1ncn([C@@H]2O[C@H](CO)[C@@H](O)[C@H]2O)n1", "solubility (mole fraction)": "8.55e-05"}

----------
# measurement_parameters: in sec-butanol, 298.15 K

{"cpd_smiles": "NC(=O)c1ncn([C@@H]2O[C@H](CO)[C@@H](O)[C@H]2O)n1", "solubility (mole fraction)": 0.000104}

----------
# measurement_parameters: in sec-butanol, 293.15 K
reported_metric: solubility (mole fraction)

{"cpd_smiles": "NC(=O)c1ncn([C@@H]2O[C@H](CO)[C@@H](O)[C@H]2O)n1", "reported_metric": "solubility (mole fraction)", "test_value": "9.62e-05"}

----------
# measurement_parameters: in methanol, 298.15 K

{"cpd_smiles": "NC(=O)c1ncn([C@@H]2O[C@H](CO)[C@@H](O)[C@H]2O)n1", "solubility (mole fraction)": 0.000865}

----------
# measurement_parameters: in ethanol, 303.15 K

{"cpd_smiles": "NC(=O)c1ncn([C@@H]2O[C@H](CO)[C@@H](O)[C@H]2O)n1", "solubility (mole fraction)": 0.000209}

----------
# measurement_parameters: in acetone, 318.15 K
reported_metric: solubility (mole fraction)

{"cpd_smiles": "NC(=O)c1ncn([C@@H]2O[C@H](CO)[C@@H](O)[C@H]2O)n1", "reported_metric": "solubility (mole fraction)", "test_value": 0.000139}

----------
# measurement_parameters: in water, 298.15 K

{"cpd_smiles": "NC(=O)c1ncn([C@@H]2O[C@H](CO)[C@@H](O)[C@H]2O)n1", "solubility (mole fraction)": 0.0144}

----------
# measurement_parameters: in sec-butanol, 313.15 K
reported_metric: solubility (mole fraction)

{"cpd_smiles": "NC(=O)c1ncn([C@@H]2O[C@H](CO)[C@@H](O)[C@H]2O)n1", "reported_metric": "solubility (mole fraction)", "test_value": 0.000161}

----------
# measurement_parameters: in n-propanol, 288.15 K

{"cpd_smiles": "NC(=O)c1ncn([C@@H]2O[C@H](CO)[C@@H](O)[C@H]2O)n1", "solubility (mole fraction)": "5.73e-05"}

----------
# measurement_parameters: in DMSO, 323.15 K
reported_metric: solubility (mole fraction)

{"cpd_smiles": "NC(=O)c1ncn([C@@H]2O[C@H](CO)[C@@H](O)[C@H]2O)n1", "test_value": 0.125}

----------
# measurement_parameters: in water, 313.15 K
reported_metric: solubility (mole fraction)

{"cpd_smiles": "NC(=O)c1ncn([C@@H]2O[C@H](CO)[C@@H](O)[C@H]2O)n1", "reported_metric": "solubility (mole fraction)", "test_value": 0.0225}

----------
# measurement_parameters: in DMSO, 298.15 K

{"cpd_smiles": "NC(=O)c1ncn([C@@H]2O[C@H](CO)[C@@H](O)[C@H]2O)n1", "solubility (mole fraction)": 0.0659}

----------
# measurement_parameters: in sec-butanol, 323.15 K

{"cpd_smiles": "NC(=O)c1ncn([C@@H]2O[C@H](CO)[C@@H](O)[C@H]2O)n1", "solubility (mole fraction)": 0.000224}

----------
# measurement_parameters: in formic acid, 303.15 K

{"cpd_smiles": "NC(=O)c1ncn([C@@H]2O[C@H](CO)[C@@H](O)[C@H]2O)n1", "solubility (mole fraction)": 0.091}

----------
# measurement_parameters: in methanol, 308.15 K

{"cpd_smiles": "NC(=O)c1ncn([C@@H]2O[C@H](CO)[C@@H](O)[C@H]2O)n1", "solubility (mole fraction)": 0.00122}

----------
# measurement_parameters: in ethanol, 313.15 K

{"cpd_smiles": "NC(=O)c1ncn([C@@H]2O[C@H](CO)[C@@H](O)[C@H]2O)n1", "solubility (mole fraction)": 0.000339}

----------
# measurement_parameters: in acetone, 298.15 K

{"cpd_smiles": "NC(=O)c1ncn([C@@H]2O[C@H](CO)[C@@H](O)[C@H]2O)n1", "solubility (mole fraction)": "6.36e-05"}

----------
# measurement_parameters: in acetone, 303.15 K

{"cpd_smiles": "NC(=O)c1ncn([C@@H]2O[C@H](CO)[C@@H](O)[C@H]2O)n1", "solubility (mole fraction)": "7.87e-05"}

----------
# measurement_parameters: in formic acid, 293.15 K
reported_metric: solubility (mole fraction)

{"cpd_smiles": "NC(=O)c1ncn([C@@H]2O[C@H](CO)[C@@H](O)[C@H]2O)n1", "reported_metric": "solubility (mole fraction)", "test_value": 0.0644}

----------
# measurement_parameters: in formic acid, 288.15 K

{"cpd_smiles": "NC(=O)c1ncn([C@@H]2O[C@H](CO)[C@@H](O)[C@H]2O)n1", "solubility (mole fraction)": 0.0533}

----------
# measurement_parameters: in sec-butanol, 283.15 K

{"cpd_smiles": "NC(=O)c1ncn([C@@H]2O[C@H](CO)[C@@H](O)[C@H]2O)n1", "solubility (mole fraction)": "7.85e-05"}

----------
# measurement_parameters: in n-propanol, 318.15 K
reported_metric: solubility (mole fraction)

{"cpd_smiles": "NC(=O)c1ncn([C@@H]2O[C@H](CO)[C@@H](O)[C@H]2O)n1", "test_value": 0.000235}

----------
# measurement_parameters: in water, 323.15 K

{"cpd_smiles": "NC(=O)c1ncn([C@@H]2O[C@H](CO)[C@@H](O)[C@H]2O)n1", "solubility (mole fraction)": 0.0305}

----------
# measurement_parameters: in DMSO, 308.15 K
reported_metric: solubility (mole fraction)

{"cpd_smiles": "NC(=O)c1ncn([C@@H]2O[C@H](CO)[C@@H](O)[C@H]2O)n1", "test_value": 0.0821}

----------
# measurement_parameters: in n-butanol, 298.15 K
reported_metric: solubility (mole fraction)

{"cpd_smiles": "NC(=O)c1ncn([C@@H]2O[C@H](CO)[C@@H](O)[C@H]2O)n1", "test_value": 0.000149}

----------
# measurement_parameters: in methanol, 313.15 K

{"cpd_smiles": "NC(=O)c1ncn([C@@H]2O[C@H](CO)[C@@H](O)[C@H]2O)n1", "solubility (mole fraction)": 0.00138}

----------
# measurement_parameters: in n-propanol, 313.15 K

{"cpd_smiles": "NC(=O)c1ncn([C@@H]2O[C@H](CO)[C@@H](O)[C@H]2O)n1", "solubility (mole fraction)": 0.000194}

----------
# measurement_parameters: in ethanol, 293.15 K
reported_metric: solubility (mole fraction)

{"cpd_smiles": "NC(=O)c1ncn([C@@H]2O[C@H](CO)[C@@H](O)[C@H]2O)n1", "test_value": 0.000117}

----------
# measurement_parameters: in DMSO, 293.15 K
reported_metric: solubility (mole fraction)

{"cpd_smiles": "NC(=O)c1ncn([C@@H]2O[C@H](CO)[C@@H](O)[C@H]2O)n1", "test_value": 0.0532}

----------
# measurement_parameters: in methanol, 323.15 K

{"cpd_smiles": "NC(=O)c1ncn([C@@H]2O[C@H](CO)[C@@H](O)[C@H]2O)n1", "solubility (mole fraction)": 0.00194}

----------
# measurement_parameters: in water, 288.15 K

{"cpd_smiles": "NC(=O)c1ncn([C@@H]2O[C@H](CO)[C@@H](O)[C@H]2O)n1", "solubility (mole fraction)": 0.0104}

----------
# measurement_parameters: in formic acid, 298.15 K

{"cpd_smiles": "NC(=O)c1ncn([C@@H]2O[C@H](CO)[C@@H](O)[C@H]2O)n1", "solubility (mole fraction)": 0.0785}

----------
# measurement_parameters: in DMSO, 303.15 K

{"cpd_smiles": "NC(=O)c1ncn([C@@H]2O[C@H](CO)[C@@H](O)[C@H]2O)n1", "solubility (mole fraction)": 0.075}

----------
# measurement_parameters: in formic acid, 323.15 K

{"cpd_smiles": "NC(=O)c1ncn([C@@H]2O[C@H](CO)[C@@H](O)[C@H]2O)n1", "solubility (mole fraction)": 0.159}

----------
# measurement_parameters: in acetone, 288.15 K

{"cpd_smiles": "NC(=O)c1ncn([C@@H]2O[C@H](CO)[C@@H](O)[C@H]2O)n1", "solubility (mole fraction)": "4.45e-05"}

----------
# measurement_parameters: in n-propanol, 293.15 K
reported_metric: solubility (mole fraction)

{"cpd_smiles": "NC(=O)c1ncn([C@@H]2O[C@H](CO)[C@@H](O)[C@H]2O)n1", "reported_metric": "solubility (mole fraction)", "test_value": "7.99e-05"}
